Molecular target: human TLR7 (Homo sapiens (Human))
Test: TLR7 inhibition reporter assay (HEK-Blue SEAP)
Assay type: cell-based
Conditions: HEK-Blue cells overexpressing human TLR7, SEAP reporter, gardiquimod 7.5 μM
pIC50: −log10 of the molar value.
readout-label: pIC50

Observe how each entry below is paired with its result.
Incoming: Name the recorded pIC50 of the item COc1cc(-c2[nH]c3ccc(C4CC(N(C)CCS(C)(=O)=O)C4)nc3c2C(C)C)cn2ncnc12 (stereo not shown) [Example 640] in your answer.
Outgoing: 8.31

Incoming: Name the recorded pIC50 of the item Cc1c(-c2[nH]c3ccc(N4CC5(CN(CC(=O)N(C)C)C5)C4)nc3c2C(C)C)cn2ncnc2c1C [Example 742] in your answer.
Outgoing: 8.54

Incoming: Output pIC50 of Cc1c(-c2[nH]c3ccc(N4C[C@H](C)N(C(=O)CN(C)C)C[C@@H]4C)nc3c2C(C)C)cn2ncnc2c1C [Example 788]
Outgoing: 8.68

Incoming: Give the measured pIC50 for COc1cc(-c2[nH]c3ccc(OC4CCN(C)CC4)nc3c2C(C)C)cn2ncnc12 [Example 600]
Outgoing: 9.12

Incoming: Give the reported pIC50 for this molecule. COc1cc(-c2[nH]c3ccc(C4CCC(N(CC(N)=O)CC(N)=O)C4)nc3c2C(C)C)cn2ncnc12 (stereo not shown) [Example 708]
Outgoing: 7.92

I = Cc1c(-c2[nH]c3ccc(N4C[C@H](C)N(C(C)C)C[C@@H]4C)nc3c2C(C)C)cn2ncnc2c1C [Example 793]
II = COc1cc(-c2[nH]c3ccc(OC4CN(C5CCOCC5)C4)nc3c2C(C)C)cn2ncnc12 [Example 595]
Incoming: Pick one: I or II . Which one has the lower reported pIC50? Select an item and report its label.
Outgoing: II

###

Molecular target: human TLR9 (Homo sapiens (Human), UniProt Q9NR96)
Sequence (Q9NR96 26-1032): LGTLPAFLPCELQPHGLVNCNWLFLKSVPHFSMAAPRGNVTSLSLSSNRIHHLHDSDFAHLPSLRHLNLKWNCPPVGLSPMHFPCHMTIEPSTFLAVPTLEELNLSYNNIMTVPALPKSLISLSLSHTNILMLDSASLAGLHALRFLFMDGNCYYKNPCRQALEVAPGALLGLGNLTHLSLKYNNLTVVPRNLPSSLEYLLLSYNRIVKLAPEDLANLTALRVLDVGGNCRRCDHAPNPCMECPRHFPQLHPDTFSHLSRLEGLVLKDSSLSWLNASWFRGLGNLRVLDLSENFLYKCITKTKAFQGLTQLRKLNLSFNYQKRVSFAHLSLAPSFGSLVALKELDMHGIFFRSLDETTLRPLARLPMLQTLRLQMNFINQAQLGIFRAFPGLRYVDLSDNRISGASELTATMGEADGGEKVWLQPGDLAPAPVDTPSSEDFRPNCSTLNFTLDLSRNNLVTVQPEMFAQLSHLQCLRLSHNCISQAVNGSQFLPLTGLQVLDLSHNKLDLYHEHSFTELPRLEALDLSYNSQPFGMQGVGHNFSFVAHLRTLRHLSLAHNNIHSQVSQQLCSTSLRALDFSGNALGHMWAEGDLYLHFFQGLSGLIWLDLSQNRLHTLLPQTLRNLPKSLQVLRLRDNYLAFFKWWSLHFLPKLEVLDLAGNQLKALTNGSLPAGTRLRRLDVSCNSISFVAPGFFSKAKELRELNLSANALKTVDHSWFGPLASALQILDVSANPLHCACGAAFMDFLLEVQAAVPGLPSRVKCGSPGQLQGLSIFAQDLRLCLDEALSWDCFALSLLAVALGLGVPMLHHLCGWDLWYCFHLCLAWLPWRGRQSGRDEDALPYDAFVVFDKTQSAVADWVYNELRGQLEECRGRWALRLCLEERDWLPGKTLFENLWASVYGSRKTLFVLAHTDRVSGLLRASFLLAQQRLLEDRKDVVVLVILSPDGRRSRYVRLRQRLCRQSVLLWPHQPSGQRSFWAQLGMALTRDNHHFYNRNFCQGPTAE
Test: TLR9 inhibition reporter assay (HEK-Blue SEAP);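 further: SEAP driven by an IFN-β minimal promoter with NF-κB and AP-1 sites, read after 22 h, compounds dosed 0.05 nM–50 µM, inhibition scaled between agonist plus DMSO and reference-inhibitor wells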
Conditions: read-out: TLR9 IC50; HEK-Blue cells overexpressing human TLR9, SEAP reporter, ODN2006 5 nM
readout-label: IC50 (nM)

Consider the following illustrative entries.
Incoming: Report the value of IC50 obtained on human TLR9 (Homo sapiens (Human), UniProt Q9NR96) for COc1cc(-c2[nH]c3ccc(C4CCN(CC(=O)N(C)C)CC4)nc3c2C(C)C)cn2ncnc12 .
Outgoing: 2850

Incoming: Write down measured IC50 (human TLR9 (Homo sapiens (Human), UniProt Q9NR96)) for this molecule. COc1cc(-c2[nH]c3ccc(CCN4CCCCC4)nc3c2C(C)C)cn2ncnc12
Outgoing: 1050

1 = COc1cc(-c2[nH]c3ccc(C4CN(C)CCO4)nc3c2C(C)C)cn2ncnc12 (stereo not shown)
2 = COc1cc(-c2[nH]c3ccc(OCC4CCN(C5CCOCC5)CC4)nc3c2C(C)C)cn2ncnc12
Incoming: Compare 1 and 2 by numeric IC50 and name the larger one. Respond with the label that goes with your answer.
Outgoing: 1

###

Target: human TLR8 (Homo sapiens (Human), UniProt Q9NR97)
Sequence (Q9NR97 27-1041): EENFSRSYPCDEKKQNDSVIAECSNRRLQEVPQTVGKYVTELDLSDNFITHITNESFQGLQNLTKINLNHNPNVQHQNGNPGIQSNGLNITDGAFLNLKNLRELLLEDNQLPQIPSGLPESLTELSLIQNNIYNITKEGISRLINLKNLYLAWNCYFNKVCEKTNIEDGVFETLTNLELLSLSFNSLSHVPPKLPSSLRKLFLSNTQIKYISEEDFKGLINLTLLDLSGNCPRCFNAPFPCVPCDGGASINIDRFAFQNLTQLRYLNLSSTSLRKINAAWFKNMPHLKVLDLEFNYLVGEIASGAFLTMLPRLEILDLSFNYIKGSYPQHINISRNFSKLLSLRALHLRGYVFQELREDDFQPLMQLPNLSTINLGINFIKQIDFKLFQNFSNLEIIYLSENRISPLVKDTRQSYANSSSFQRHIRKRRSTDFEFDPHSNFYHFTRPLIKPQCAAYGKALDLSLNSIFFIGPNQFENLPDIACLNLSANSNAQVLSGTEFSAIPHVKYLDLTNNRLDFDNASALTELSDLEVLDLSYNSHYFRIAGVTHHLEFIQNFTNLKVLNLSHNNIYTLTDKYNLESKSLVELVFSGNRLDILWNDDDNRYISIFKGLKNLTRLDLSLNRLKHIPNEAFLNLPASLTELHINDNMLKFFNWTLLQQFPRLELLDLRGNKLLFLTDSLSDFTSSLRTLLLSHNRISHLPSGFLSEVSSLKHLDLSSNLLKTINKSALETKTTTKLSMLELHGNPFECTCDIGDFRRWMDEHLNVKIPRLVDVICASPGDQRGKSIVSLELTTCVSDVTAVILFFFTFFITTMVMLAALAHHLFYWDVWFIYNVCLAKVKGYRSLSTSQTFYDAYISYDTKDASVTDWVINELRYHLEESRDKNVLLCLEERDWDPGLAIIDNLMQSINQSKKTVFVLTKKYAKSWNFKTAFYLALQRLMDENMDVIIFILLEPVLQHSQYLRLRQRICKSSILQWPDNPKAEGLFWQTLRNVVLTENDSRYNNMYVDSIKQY
Assay: TLR8 inhibition reporter assay (HEK-Blue SEAP)
Details: read-out: TLR8 IC50; HEK-Blue human TLR8 cells, R848 15.9 μM
readout-label: IC50 (nM)

Below are worked cases with known answers.
Incoming: Identify measured IC50 corresponding to Cc1c(-c2[nH]c3ccc(N4CCN(C(=O)CN5CC6(COC6)C5)C[C@H]4C)nc3c2C(C)C)cn2ncnc2c1C [Example 931]
Outgoing: 3.9

Incoming: Give reported IC50 value for COc1cc(-c2[nH]c3ccc(C4CCC(N5CCC6(COC6)C5)CC4)nc3c2C(C)C)cn2ncnc12 (stereo not shown) [Example 1068]
Outgoing: 1.8

Incoming: State its IC50: COC1CN(CC(=O)N2CCN(c3ccc4[nH]c(-c5cn6ncnc6c(C)c5C)c(C(C)C)c4n3)CC2)C1 [Example 916]
Outgoing: 11

a = Cc1c(-c2[nH]c3ccc(N4CCN(C(=O)CN(C)C(C)(C)C)C[C@@H]4C)nc3c2C(C)C)cn2ncnc2c1C [Example 905]
b = COc1cc(-c2[nH]c3ccc(N4CC5(CN(C)C5)C4)nc3c2C(C)C)cn2ncnc12 [Example 1017]
Incoming: Could you tell me which of these two has the smaller IC50 figure? First: a Second: b Reply with the label of the item you choose.
Outgoing: a

a = CCN(C)CC(=O)N1CCN(c2ccc3[nH]c(-c4cn5ncnc5c(C)c4C)c(C(C)C)c3n2)CC1 [Example 870]
b = Cc1c(-c2[nH]c3ccc(N4CCC(N(C)CCS(C)(=O)=O)CC4)nc3c2C(C)C)cn2ncnc2c1C [Example 998]
Incoming: Please let me know which one, a or b , has a lower measured IC50 value. Write down the label of the entry you select.
Outgoing: b

###

Target: UniProt Q9NR96
Experiment: TLR9 inhibition reporter assay (HEK-Blue SEAP)
Settings: read-out: TLR9 IC50; HEK-Blue human TLR9 cells, ODN2006 5 nM
pIC50: −log10 of the molar value.
readout-label: pIC50

Observe how each entry below is paired with its result.
Incoming: Give pIC50 for COc1cc(-c2[nH]c3ccc(N4CC5(C4)CN(C(C)C)C5)nc3c2C(C)C)cn2ncnc12 tested on UniProt Q9NR96.
Outgoing: 5.41

Incoming: Provide measured pIC50 on UniProt Q9NR96 for Cc1c(-c2[nH]c3ccc(N4CC5(CN(CC(C)(C)O)C5)C4)nc3c2C(C)C)cn2ncnc2c1C please.
Outgoing: 5.55

Incoming: Give pIC50 only, for Cc1c(-c2[nH]c3ccc(N4CCN(C(=O)CN(C)CCO)CC4)nc3c2C(C)C)cn2ncnc2c1C , using UniProt Q9NR96 data.
Outgoing: 5.14

a = Cc1c(-c2[nH]c3ccc(N4CCN(C(=O)CN5CC6(COC6)C5)[C@H](C)C4)nc3c2C(C)C)cn2ncnc2c1C
b = Cc1c(-c2[nH]c3ccc(C4CCC(N5CC(C)(O)C5)CC4)nc3c2C(C)C)cn2ncnc2c1C (stereo not shown) [Example 1044]
c = CC(C)c1c(-c2cn(C)c3ncccc23)[nH]c2ccc(C3CCC(N4CC5(COC5)C4)CC3)nc12 (stereo not shown)
Incoming: Ordering criterion: pIC50; begin with the maximum. List the labels in the requested order.
Outgoing: c, b, a

###

Target: UniProtKB Q9NR97
Assay: TLR8 inhibition reporter assay (HEK-Blue SEAP)
Settings: read-out: TLR8 IC50; HEK-Blue cells overexpressing human TLR8, R848 15.9 μM stimulation, SEAP reporter
readout-label: IC50 (nM)

Example entries begin here.
Incoming: Please respond with reported IC50 (system UniProtKB Q9NR97) for COc1cc(-c2[nH]c3ccc(N4CCN(C5CCN(C(C)=O)CC5)CC4)nc3c2C(C)C)cn2ncnc12 .
Outgoing: 0.8

Incoming: Fetch value of IC50 on UniProtKB Q9NR97 for Cc1c(-c2[nH]c3ccc(C4CCC(N5CC(F)(F)C5)CC4)nc3c2C(C)C)cn2ncnc2c1C (stereo not shown) [Example 370] .
Outgoing: 23

Incoming: Quote IC50 with test system UniProtKB Q9NR97 for COc1cc(-c2[nH]c3ccc(N4CCN(CCC(=O)N(C)C)CC4)nc3c2C(C)C)cn2ncnc12
Outgoing: 0.79

Incoming: // fetch IC50; item: Cc1c(-c2[nH]c3ccc(N4CCN(CC5(C)COC5)CC4)nc3c2C(C)C)cn2ncnc2c1C ; system: UniProtKB Q9NR97
Outgoing: 4.1

Incoming: # return IC50 for CC(C)c1c(-c2cn(C)c3ncccc23)[nH]c2ccc(N3CCC(N(CC#N)CC#N)CC3)nc12 [Example 51] , test system: UniProtKB Q9NR97
Outgoing: 7

P = COc1cc(-c2[nH]c3ccc(C4CCC(NCc5cnc(C)cn5)CC4)nc3c2C(C)C)cn2ncnc12 (stereo not shown) [Example 196]
Q = CCN(CC)C1CCC(c2ccc3[nH]c(-c4cn5ncnc5c(C)c4C)c(C(C)C)c3n2)CC1 (stereo not shown)
Incoming: Parameter metric = IC50. Return the lower-valued option from P and Q . Answer = label.
Outgoing: Q
(Q: 4.6 nM, P: 10 nM)

###

Target: human TLR7 (Homo sapiens (Human), UniProt Q9NYK1)
Sequence (Q9NYK1 27-1049): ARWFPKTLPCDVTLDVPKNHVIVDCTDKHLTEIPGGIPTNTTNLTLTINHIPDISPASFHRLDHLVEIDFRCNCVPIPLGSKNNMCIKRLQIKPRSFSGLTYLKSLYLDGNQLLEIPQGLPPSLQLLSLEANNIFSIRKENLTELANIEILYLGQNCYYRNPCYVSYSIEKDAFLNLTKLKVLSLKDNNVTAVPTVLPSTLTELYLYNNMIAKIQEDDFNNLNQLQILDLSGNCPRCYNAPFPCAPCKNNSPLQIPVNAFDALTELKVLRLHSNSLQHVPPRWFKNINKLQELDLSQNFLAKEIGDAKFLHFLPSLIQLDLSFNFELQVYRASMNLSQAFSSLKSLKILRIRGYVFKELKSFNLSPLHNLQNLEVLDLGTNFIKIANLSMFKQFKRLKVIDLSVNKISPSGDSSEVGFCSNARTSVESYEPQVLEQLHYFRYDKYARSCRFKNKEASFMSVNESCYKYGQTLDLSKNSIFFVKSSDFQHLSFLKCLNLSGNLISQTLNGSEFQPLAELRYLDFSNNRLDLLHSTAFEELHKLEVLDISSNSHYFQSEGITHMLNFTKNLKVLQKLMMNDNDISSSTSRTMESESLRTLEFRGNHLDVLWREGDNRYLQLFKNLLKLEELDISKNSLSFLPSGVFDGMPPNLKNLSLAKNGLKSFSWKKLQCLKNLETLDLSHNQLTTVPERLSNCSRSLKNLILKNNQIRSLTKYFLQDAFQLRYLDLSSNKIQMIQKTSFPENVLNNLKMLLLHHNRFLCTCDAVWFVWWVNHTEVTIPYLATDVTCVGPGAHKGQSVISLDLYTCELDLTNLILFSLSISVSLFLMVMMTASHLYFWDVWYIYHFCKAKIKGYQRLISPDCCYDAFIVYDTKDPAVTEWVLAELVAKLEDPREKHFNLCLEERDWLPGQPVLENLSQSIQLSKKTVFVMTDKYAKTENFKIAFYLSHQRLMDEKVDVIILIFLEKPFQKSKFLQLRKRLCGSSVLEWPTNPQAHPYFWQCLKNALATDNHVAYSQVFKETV
Test: TLR7 inhibition reporter assay (HEK-Blue SEAP)
Format: cell-based
Conditions: HEK-Blue cells overexpressing human TLR7, SEAP reporter, gardiquimod 7.5 μM
pIC50: −log10 of the molar value.
readout-label: pIC50

Incoming: Return reported pIC50. Input compound: Cc1cc(-c2[nH]c3ccc(C4CN(CC#N)CCO4)nc3c2C(C)C)cn(C)c1=O (centres unmarked) [Example 670]
Outgoing: 7.25

A = COc1cc(-c2[nH]c3ccc(CCC4CN(CCS(C)(=O)=O)C4)nc3c2C(C)C)cn2ncnc12 [Example 698]
B = COc1cc(-c2[nH]c3ccc(C4CN(Cc5c[nH]nn5)C4)nc3c2C(C)C)cn2ncnc12 [Example 651]
C = Cc1c(-c2[nH]c3ccc(C4CN(C(C)C)CCO4)nc3c2C(C)C)cn2ncnc2c1C (centres unmarked) [Example 658]
D = Cc1c(-c2[nH]c3ccc(C4CCNCC4)nc3c2C(C)C)cn2ncnc2c1C [Example 521]
E = Cc1cc2[nH]c(-c3cc(C)c4ncnn4c3)c(C(C)C)c2nc1C1CCNCC1 [Example 525]
Incoming: Your job: order these 5 records by pIC50, ascending. // rank by listing labels in the order requested
Outgoing: A, C, B, D, E
(A: 7.92, C: 8.42, B: 8.77, D: 9.21, E: 9.74)

A = Cc1c(-c2[nH]c3ccc(C4CCC(N(C)CC(=O)N(C)C)CC4)nc3c2C(C)C)cn2ncnc2c1C (centres unmarked) [Example 408]
B = COc1cc(-c2[nH]c3ccc(C4CCC(NCC5(C)COC5)C4)nc3c2C(C)C)cn2ncnc12 (centres unmarked) [Example 718]
Incoming: Consider entries A and B . Which has the numerically lower pIC50? // caller expects the label of the chosen entry
Outgoing: A
(A: 7.74, B: 8.02)

Entry source: patent US10544143B2
